Tested on: HL-60(TB) leukemia
Assay: NCI tumour cell line growth inhibition, 48 h
endpoint: log10(TGI) (log10 of the value in µM)

{"compound": "CC1(C)CC(O)C2=C(O1)C(=O)c1ncccc1C2=O (stereo not given)", "log10(TGI)": 0.62}
{"compound": "C=C(C)C(=O)O[C@H]1CC2=C[C@@H](C[C@@]3(C)O[C@@H]3[C@H]3OC(=O)C(=C)[C@@H]31)OC2=O", "log10(TGI)": 0.05}
{"compound": "C=C1CCCC2[C@](C)(CC3=C(Cl)C(=O)C=C(OC)C3=O)C(C)CC[C@]12C (stereo not given in full)", "log10(TGI)": 1.01}
{"compound": "C[Si](C)(C)C#Cc1cc(-c2nc3ccccc3s2)ccc1N", "log10(TGI)": 1.70}
{"compound": "COc1ccccc1NC(=O)C1=C(C)NC(C)=C(C(=O)Nc2ccccc2OC)C1C1=CC=COC1", "log10(TGI)": 1.03}
{"compound": "CCC(CC)c1nc(Nc2ccc(C(=O)OC)cc2)c2ccccc2n1", "log10(TGI)": 1.41}
{"compound": "COc1c(O)c(OC)c2oc(-c3ccc(O)c(O)c3)c(OC)c(=O)c2c1O", "log10(TGI)": 1.84}
{"compound": "CCCCCCCC/C=C/CCCCCCCC1=NC(C)(C)CN1CC(C)O (stereo not given)", "log10(TGI)": 0.65}
{"compound": "O=C(CC(CC(=O)Oc1c(Br)cc(Br)cc1C(=O)O)C(=O)Oc1c(Br)cc(Br)cc1C(=O)O)Oc1c(Br)cc(Br)cc1C(=O)O", "log10(TGI)": 1.98}
{"compound": "CC(=O)OC(CN1CCN(c2ccccn2)CC1)Cn1sc2nc(C)cc(C)c2c1=O (stereo not given)", "log10(TGI)": 1.74}
{"compound": "COc1ccc2c(c1O)-c1cc(O)cc3c1[C@@H](C2)N(C)CC3", "log10(TGI)": 2.28}

====

Parameter: TGI. Scope: all listed entries.
System: SN12C renal
Test: NCI tumour cell line growth inhibition, 48 h
endpoint: TGI

{"compound": "Cc1ccc2c(=O)cc(Cc3cccs3)[nH]c2n1", "test_value": "> 100 µM"}
{"compound": "CC(=O)Nc1ccc(/C=c2\\sc3nnc(CCC(=O)Nc4ccccc4Cl)n3c2=O)cc1", "test_value": "> 100 µM"}
{"compound": "c1ccc2c(c1)NCCC(=NC1CCCCC1)N2", "test_value": "> 100 µM"}
{"compound": "CCOC(=O)C1SC(=Nc2cccc(Cl)c2C)N=C1C (configuration not stated)", "test_value": "35.6 µM"}
{"compound": "CCOc1ccc2nc3nc(=O)[nH]c(C)c3c(NCCCN(CC)CC)c2c1", "test_value": "> 100 µM"}
{"compound": "Oc1ccc2c(c1)CCc1c-2n(CCN2CCOCC2)c2ccc(O)cc12", "test_value": "> 100 µM"}
{"compound": "N#Cc1cnc(-n2[nH]c3c(c2=O)CCCC3)[nH]c1=O", "test_value": "> 100 µM"}

====

Tested on: OVCAR-8 ovarian
Test: NCI tumour cell line growth inhibition, 48 h
Measured TGI values are reported for all entries that follow.
endpoint: TGI (µM)

{"compound": "Oc1cc(O)c2ccc(-c3ccc(O)c(O)c3)[o+]c2c1", "assay_target": "OVCAR-8 ovarian", "prefix_operator": ">", "test_value": 100}
{"compound": "CCN(CC)CCNc1ccc(C)c2sc3cc(Cl)ccc3c(=O)c12", "assay_target": "OVCAR-8 ovarian", "prefix_operator": "=", "test_value": 3.49}
{"compound": "COc1cccc2ccc(C(=O)c3ccccc3)nc12", "assay_target": "OVCAR-8 ovarian", "prefix_operator": ">", "test_value": 100}
{"compound": "COc1cc(C2S/C(=C/c3ccccc3)C(=O)N2c2ccc(NC(C)=O)cc2)cc(OC)c1OC (stereo not given)", "assay_target": "OVCAR-8 ovarian", "prefix_operator": "=", "test_value": 76.9}
{"compound": "CSc1ccc(-c2ccccc(=O)c2O)cc1", "assay_target": "OVCAR-8 ovarian", "prefix_operator": "=", "test_value": 64.8}
{"compound": "O=c1ccn(CC2(CO)CCCC2)c(=O)[nH]1", "assay_target": "OVCAR-8 ovarian", "prefix_operator": ">", "test_value": 100}
{"compound": "CCOC(=O)C1SC(=Nc2cccc(Cl)c2C)N=C1C (stereo not given)", "assay_target": "OVCAR-8 ovarian", "prefix_operator": "=", "test_value": 61.9}
{"compound": "O=c1[nH]nc(Cc2ccc(Cl)cc2)n1/N=C/c1ccco1", "assay_target": "OVCAR-8 ovarian", "prefix_operator": ">", "test_value": 100}
{"compound": "Cc1ccc(S(=O)(=O)N2CCN(S(=O)(=O)c3ccc(C)cc3)CCN(S(=O)(=O)c3ccc(C)cc3)Cc3cc(C#N)c(C#N)cc3CN(S(=O)(=O)c3ccc(C)cc3)CC2)cc1", "assay_target": "OVCAR-8 ovarian", "prefix_operator": ">", "test_value": 100}
{"compound": "COC(=O)c1c(C)cccc1C1CN=NC12Cc1ccccc1C2=O (stereo not given)", "assay_target": "OVCAR-8 ovarian", "prefix_operator": ">", "test_value": 100}
